Each recorded value in this set is attributed to BigSolDB 2.1.

CONDITION SET: in n-hexane, 318.15 K
QUANTITY KIND: solubility (mole fraction)

MOLECULE	NUMERIC READOUT
CC(=O)C1=C(O)C=C2Oc3c(C(C)=O)c(O)c(C)c(O)c3C2(C)C1=O (stereo in doubt)	0.000149

* * *

CONDITION SET: in water, 338.15 K

COMPOUND	solubility (mole fraction)
CC(=O)C1=C(O)C=C2Oc3c(C(C)=O)c(O)c(C)c(O)c3C2(C)C1=O (stereo in doubt)	6.61e-07

* * *

CONDITION SET: in ethyl acetate, 293.15 K
QUANTITY KIND: solubility (mole fraction)

COMPOUND	RESULT
CC(=O)C1=C(O)C=C2Oc3c(C(C)=O)c(O)c(C)c(O)c3C2(C)C1=O (stereo in doubt)	0.00125

* * *

CONDITION SET: in acetone, 303.15 K

COMPOUND	solubility (mole fraction)
CC(=O)C1=C(O)C=C2Oc3c(C(C)=O)c(O)c(C)c(O)c3C2(C)C1=O (stereo in doubt)	0.000879

* * *

CONDITION SET: in water, 328.15 K
QUANTITY KIND: solubility (mole fraction)

MOLECULE	NUMERIC READOUT
CC(=O)C1=C(O)C=C2Oc3c(C(C)=O)c(O)c(C)c(O)c3C2(C)C1=O (stereo in doubt)	5.3e-07

* * *

CONDITION SET: in acetone, 323.15 K

COMPOUND	solubility (mole fraction)
CC(=O)C1=C(O)C=C2Oc3c(C(C)=O)c(O)c(C)c(O)c3C2(C)C1=O (stereo in doubt)	0.00197

* * *

CONDITION SET: in acetone, 288.15 K
QUANTITY KIND: solubility (mole fraction)

COMPOUND	RESULT
CC(=O)C1=C(O)C=C2Oc3c(C(C)=O)c(O)c(C)c(O)c3C2(C)C1=O (stereo in doubt)	0.000541

* * *

CONDITION SET: in acetone, 298.15 K

MOLECULE	solubility (mole fraction)
CC(=O)C1=C(O)C=C2Oc3c(C(C)=O)c(O)c(C)c(O)c3C2(C)C1=O (stereo in doubt)	0.000747

* * *

CONDITION SET: in ethyl acetate, 298.15 K

MOLECULE	solubility (mole fraction)
CC(=O)C1=C(O)C=C2Oc3c(C(C)=O)c(O)c(C)c(O)c3C2(C)C1=O (stereo in doubt)	0.00158

* * *

CONDITION SET: in water, 313.15 K

COMPOUND	solubility (mole fraction)
CC(=O)C1=C(O)C=C2Oc3c(C(C)=O)c(O)c(C)c(O)c3C2(C)C1=O (stereo in doubt)	4.06e-07

* * *

CONDITION SET: in ethanol, 293.15 K
QUANTITY KIND: solubility (mole fraction)

MOLECULE	NUMERIC READOUT
CC(=O)C1=C(O)C=C2Oc3c(C(C)=O)c(O)c(C)c(O)c3C2(C)C1=O (stereo in doubt)	4.23e-05

* * *

CONDITION SET: in ethyl acetate, 323.15 K

MOLECULE	solubility (mole fraction)
CC(=O)C1=C(O)C=C2Oc3c(C(C)=O)c(O)c(C)c(O)c3C2(C)C1=O (stereo in doubt)	0.0038

* * *

CONDITION SET: in acetone, 318.15 K
QUANTITY KIND: solubility (mole fraction)

COMPOUND	QUANTITY KIND	NUMERIC READOUT
CC(=O)C1=C(O)C=C2Oc3c(C(C)=O)c(O)c(C)c(O)c3C2(C)C1=O (stereo in doubt)	solubility (mole fraction)	0.00165

* * *

CONDITION SET: in water, 298.15 K
QUANTITY KIND: solubility (mole fraction)

MOLECULE	NUMERIC READOUT
CC(=O)C1=C(O)C=C2Oc3c(C(C)=O)c(O)c(C)c(O)c3C2(C)C1=O (stereo in doubt)	3.31e-07

* * *

CONDITION SET: in ethyl acetate, 313.15 K
QUANTITY KIND: solubility (mole fraction)

COMPOUND	QUANTITY KIND	NUMERIC READOUT
CC(=O)C1=C(O)C=C2Oc3c(C(C)=O)c(O)c(C)c(O)c3C2(C)C1=O (stereo in doubt)	solubility (mole fraction)	0.00275

* * *

CONDITION SET: in n-hexane, 323.15 K
QUANTITY KIND: solubility (mole fraction)

COMPOUND	NUMERIC READOUT
CC(=O)C1=C(O)C=C2Oc3c(C(C)=O)c(O)c(C)c(O)c3C2(C)C1=O (stereo in doubt)	0.000176

* * *

CONDITION SET: in ethyl acetate, 333.15 K

COMPOUND	solubility (mole fraction)
CC(=O)C1=C(O)C=C2Oc3c(C(C)=O)c(O)c(C)c(O)c3C2(C)C1=O (stereo in doubt)	0.00518

* * *

CONDITION SET: in water, 293.15 K

COMPOUND	solubility (mole fraction)
CC(=O)C1=C(O)C=C2Oc3c(C(C)=O)c(O)c(C)c(O)c3C2(C)C1=O (stereo in doubt)	2.99e-07

* * *

CONDITION SET: in water, 323.15 K

COMPOUND	solubility (mole fraction)
CC(=O)C1=C(O)C=C2Oc3c(C(C)=O)c(O)c(C)c(O)c3C2(C)C1=O (stereo in doubt)	4.77e-07

* * *

CONDITION SET: in acetone, 283.15 K
QUANTITY KIND: solubility (mole fraction)

COMPOUND	QUANTITY KIND	NUMERIC READOUT
CC(=O)C1=C(O)C=C2Oc3c(C(C)=O)c(O)c(C)c(O)c3C2(C)C1=O (stereo in doubt)	solubility (mole fraction)	0.000454

* * *

CONDITION SET: in ethanol, 288.15 K

MOLECULE	solubility (mole fraction)
CC(=O)C1=C(O)C=C2Oc3c(C(C)=O)c(O)c(C)c(O)c3C2(C)C1=O (stereo in doubt)	3.09e-05

* * *

CONDITION SET: in n-hexane, 293.15 K

MOLECULE	solubility (mole fraction)
CC(=O)C1=C(O)C=C2Oc3c(C(C)=O)c(O)c(C)c(O)c3C2(C)C1=O (stereo in doubt)	6.97e-05

* * *

CONDITION SET: in ethanol, 303.15 K
QUANTITY KIND: solubility (mole fraction)

COMPOUND	QUANTITY KIND	RESULT
CC(=O)C1=C(O)C=C2Oc3c(C(C)=O)c(O)c(C)c(O)c3C2(C)C1=O (stereo in doubt)	solubility (mole fraction)	6.8e-05

* * *

CONDITION SET: in n-hexane, 333.15 K
QUANTITY KIND: solubility (mole fraction)

COMPOUND	NUMERIC READOUT
CC(=O)C1=C(O)C=C2Oc3c(C(C)=O)c(O)c(C)c(O)c3C2(C)C1=O (stereo in doubt)	0.000256

* * *

CONDITION SET: in ethyl acetate, 318.15 K

MOLECULE	solubility (mole fraction)
CC(=O)C1=C(O)C=C2Oc3c(C(C)=O)c(O)c(C)c(O)c3C2(C)C1=O (stereo in doubt)	0.00314

* * *

CONDITION SET: in ethanol, 298.15 K

COMPOUND	solubility (mole fraction)
CC(=O)C1=C(O)C=C2Oc3c(C(C)=O)c(O)c(C)c(O)c3C2(C)C1=O (stereo in doubt)	5.3e-05

* * *

CONDITION SET: in ethanol, 333.15 K

COMPOUND	solubility (mole fraction)
CC(=O)C1=C(O)C=C2Oc3c(C(C)=O)c(O)c(C)c(O)c3C2(C)C1=O (stereo in doubt)	0.000234

* * *

CONDITION SET: in ethyl acetate, 338.15 K

COMPOUND	solubility (mole fraction)
CC(=O)C1=C(O)C=C2Oc3c(C(C)=O)c(O)c(C)c(O)c3C2(C)C1=O (stereo in doubt)	0.00689

* * *

CONDITION SET: in n-hexane, 313.15 K

COMPOUND	solubility (mole fraction)
CC(=O)C1=C(O)C=C2Oc3c(C(C)=O)c(O)c(C)c(O)c3C2(C)C1=O (stereo in doubt)	0.000128

* * *

CONDITION SET: in n-hexane, 328.15 K
QUANTITY KIND: solubility (mole fraction)

MOLECULE	NUMERIC READOUT
CC(=O)C1=C(O)C=C2Oc3c(C(C)=O)c(O)c(C)c(O)c3C2(C)C1=O (stereo in doubt)	0.000224

* * *

CONDITION SET: in n-hexane, 303.15 K
QUANTITY KIND: solubility (mole fraction)

COMPOUND	NUMERIC READOUT
CC(=O)C1=C(O)C=C2Oc3c(C(C)=O)c(O)c(C)c(O)c3C2(C)C1=O (stereo in doubt)	9.43e-05

* * *

CONDITION SET: in n-hexane, 308.15 K

MOLECULE	solubility (mole fraction)
CC(=O)C1=C(O)C=C2Oc3c(C(C)=O)c(O)c(C)c(O)c3C2(C)C1=O (stereo in doubt)	0.000106
